- MEASURED ON: CDK2 (cyclin A or cyclin E) (Homo sapiens, UniProt P24941)
- Construct: The expressed protein was approximately 34 kDa in size; made in house; host or cells: SF9 insect cells (recombinant baculovirus, pFASTBAC)
- PROTOCOL DETAILS: CDK2 in vitro kinase assay (cyclin A or cyclin E dependent), SPA with biotinylated Histone H1 peptide
- Type: biochemical
- RECORDED CONDITIONS: compound at 0.5 ug/mL; read-out: % INH @ 0.5 ug/mL
The following compounds are listed with their measured inhibition at 0.5 µg/mL values.
Numbers only here, please. The scale is %.

Example results:
| COMPOUND | MEASURED ON | inhibition at 0.5 µg/mL / % |
| --- | --- | --- |
| Clc1ccccc1-c1cn2c(Br)cnc2c(NCCCn2cccc2)n1 | CDK2 (cyclin A or cyclin E) (Homo sapiens, UniProt P24941) | 48.8 |
| CC(CO)Nc1nc(-c2ccccc2Cl)cn2c(Br)cnc12 (stereo not drawn) | CDK2 (cyclin A or cyclin E) (Homo sapiens, UniProt P24941) | 92.7 |
| O=C1CCCN1CCCNc1nc(-c2ccccc2Cl)cn2c(Br)cnc12 | CDK2 (cyclin A or cyclin E) (Homo sapiens, UniProt P24941) | 67.8 |

QUERY: Request body: readout inhibition at 0.5 µg/mL, system CDK2 (cyclin A or cyclin E) (Homo sapiens, UniProt P24941), query Clc1ccccc1-c1cn2c(Br)cnc2c(NCc2cccnc2)n1 . Return the value.
RESULT: 88.6

QUERY: Which inhibition at 0.5 µg/mL is reported with CDK2 (cyclin A or cyclin E) (Homo sapiens, UniProt P24941) for this entry: Clc1ccccc1-c1cn2c(Br)cnc2c(NCCCn2ccnc2)n1 ?
RESULT: 29.4

QUERY: Recall the recorded inhibition at 0.5 µg/mL for COCCCNc1nc(-c2ccccc2Cl)cn2c(Br)cnc12 with CDK2 (cyclin A or cyclin E) (Homo sapiens, UniProt P24941) and state it.
RESULT: 71.5

---

RESULT TYPE: melting point

Worked examples, 5 compounds total:
| MOLECULE | melting point |
| --- | --- |
| Brc1cnc2c(Nc3ccccc3)nc(-c3ccccc3)cn12 | 169 to 170 °C |
| O=C(c1cccc(C(F)(F)F)c1)N1CCC(Nc2nc(-c3ccccc3Cl)cn3c(Br)cnc23)CC1 | 175 to 177 °C |
| Clc1ccccc1-c1cn2c(I)cnc2c(NCc2ccncc2)n1 | 162 to 164 °C |
| Cc1cnc2c(NCc3cccnc3)nccn12 | 143 to 145 °C |
| Cc1cnc2c(NC(c3ccccc3)c3ccccc3)nccn12 | 186 to 188 °C |

QUERY: Please report the recorded melting point for Cc1cnc2c(NCc3ccncc3)nccn12 .
RESULT: 183 to 185 °C

QUERY: Which measured melting point value corresponds to Cc1cnc2c(Nc3ccccc3)nccn12 ?
RESULT: 182 to 184 °C

QUERY: What value of measured melting point is listed for Brc1cnc2c(NCCc3ccncc3)nc(-c3ccccc3)cn12 ?
RESULT: 177 to 179 °C

QUERY: I have this compound here, Cc1cnc2c(NCc3ccccc3)nccn12 , and I need its recorded melting point.
RESULT: 152 to 154 °C

QUERY: Record request: melting point value, item Cc1cnc2c(NCCc3ccncc3)nccn12
RESULT: 130 to 132 °C

QUERY: Name the reported melting point value associated with the compound Clc1ccccc1-c1cn2c(Cl)cnc2c(NCc2cccnc2)n1
RESULT: 127 to 129 °C

QUERY: Returns the measured melting point for the input compound. Input: Brc1cnc2c(NC3CCCCC3)nc(-c3ccccc3)cn12
RESULT: 145 to 146 °C

---

Here the recorded melting point is given for each entry.

The following compounds have reported results that may help.
| MOLECULE | RESULT |
| --- | --- |
| Ic1cnc2c(NCc3cccnc3)nc(-c3ccccc3)cn12 | 204 to 206 °C |
| Brc1cnc2c(NCCc3cccnc3)nc(-c3ccccc3)cn12 | 120 to 122 °C |
| Ic1cnc2c(NCc3ccncc3)nc(-c3ccccc3)cn12 | 139 to 141 °C |

QUERY: Form field: reported melting point of COCCNc1nccn2c(C)cnc12
RESULT: 104 to 105 °C

---

- MEASURED ON: CDK2 (cyclin A or cyclin E) (Homo sapiens, UniProt P24941)
- Construct: The expressed protein was approximately 34 kDa in size; made in house; host or cells: SF9 insect cells (recombinant baculovirus, pFASTBAC)
- PROTOCOL DETAILS: CDK2 in vitro kinase assay (cyclin A or cyclin E dependent), SPA with biotinylated Histone H1 peptide
- Format: biochemical
- RECORDED CONDITIONS: CDK2 with cyclin A or cyclin E; 33P-ATP SPA, 1 hour at room temperature
Entries whose IC50 is below 5000 nM take Satisfied; entries at or above 5000 nM take Not satisfied.

Field: example entries. Status: answers known.
| COMPOUND | CATEGORY LABEL |
| --- | --- |
| FC(F)(F)c1ccc(CNc2nc(-c3ccccc3)cn3c(Br)cnc23)cn1 | Satisfied |
| Ic1cnc2c(NCc3ccncc3)nc(-c3ccccc3)cn12 [drawing 714] | Satisfied |
| c1ccc(-c2cn3c(-c4ccccc4)cnc3c(NCc3cccnc3)n2)cc1 | Not satisfied |
| Clc1ccccc1-c1cn2c(Br)cnc2c(NCc2ccncc2)n1 | Satisfied |
| Cc1cnc2c(Nc3ccccc3)nccn12 [drawing 711] | Not satisfied |
| Clc1ccccc1-c1cn2c(Cl)cnc2c(NCc2cccnc2)n1 [drawing 718] | Satisfied |
| Clc1ccccc1-c1cn2c(Br)cnc2c(NCc2cccnc2)n1 | Satisfied |
| Cc1cnc2c(NCc3ccncc3)nccn12 [drawing 712] | Not satisfied |

QUERY: Quick check: IC50 of Clc1ccccc1-c1cn2c(I)cnc2c(NCc2cccnc2)n1 under 5000 nM?
RESULT: Satisfied

QUERY: Dear reviewer, please state whether CC(=O)c1cnc2c(NCc3cccnc3)nc(-c3ccccc3)cn12 has IC50 strictly beneath 5000 nM.
RESULT: Satisfied

QUERY: Consider the compound Brc1cnc2c(NCCc3cccnc3)nc(-c3ccccc3)cn12 [drawing 713] . Is its IC50 strictly less than 5000 nM?
RESULT: Satisfied

QUERY: Find out if reported IC50 for CC(CO)Nc1nc(-c2ccccc2Cl)cn2c(Br)cnc12 (stereo not drawn) is less than 5000 nM
RESULT: Satisfied

---

- MEASURED ON: CDK2 (cyclin A or cyclin E) (Homo sapiens)
- Construct: The expressed protein was approximately 34 kDa in size; made in house; host or cells: SF9 insect cells (recombinant baculovirus, pFASTBAC)
- PROTOCOL DETAILS: CDK2 in vitro kinase assay (cyclin A or cyclin E dependent), SPA with biotinylated Histone H1 peptide
- Assay type: biochemical
- RECORDED CONDITIONS: compound at 0.05 ug/mL; read-out: % INH @ 0.05 ug/mL
Consider the following compounds and their measured inhibition at 0.05 µg/mL readings.
Respond numerically; units are % and should not be typed.

| COMPOUND | RESULT TYPE | RECORDED NUMBER |
| --- | --- | --- |
| COCCCNc1nc(-c2ccccc2Cl)cn2c(Br)cnc12 | inhibition at 0.05 µg/mL | 30.7 |

QUERY: May I ask what inhibition at 0.05 µg/mL has been recorded for Clc1ccccc1-c1cn2c(Br)cnc2c(NCCCn2cccc2)n1 ?
RESULT: 42.2

QUERY: Which inhibition at 0.05 µg/mL is reported for this compound? CC(CO)Nc1nc(-c2ccccc2Cl)cn2c(Br)cnc12 (stereo not drawn)
RESULT: 63

QUERY: Consider the compound Clc1ccccc1-c1cn2c(Br)cnc2c(NCCCn2ccnc2)n1 and give its measured inhibition at 0.05 µg/mL.
RESULT: 37.5

QUERY: Name the recorded inhibition at 0.05 µg/mL for Clc1ccccc1-c1cn2c(Br)cnc2c(NCc2cccnc2)n1 .
RESULT: 47.4

QUERY: Reported inhibition at 0.05 µg/mL for O=C1CCCN1CCCNc1nc(-c2ccccc2Cl)cn2c(Br)cnc12 : what is it?
RESULT: 30.7
